ASSAY_DETAILS: Cmax in mouse at 25 mg/kg, po
Format: ADME, organism-based
Parameters: dose 25 mg/kg, route oral
CONDITION_SET: in vivo
VALUE_KIND: Cmax

Worked examples follow.
Cc1ccc([C@H]2C[C@@H](C(F)(F)F)n3ncc(C(=O)NCc4ccc(F)cc4)c3N2)nc1 3.6 µM
O=C(NCc1ccc(F)cc1)c1cnn2c1N[C@@H](c1ccc(OC3COC3)cc1)C[C@H]2C(F)(F)F 3.7 µM
Cc1ccc([C@H]2C[C@@H](C(F)F)n3ncc(C(=O)NCc4ccc(F)cc4)c3N2)nc1 5.5 µM

Request: Param item = Cc1ccc([C@H]2C[C@@H](C(F)(F)F)n3ncc(C(=O)NCc4ccc(F)cc4)c3N2)cc1 ; retrieve measured Cmax.
Result: 3.6 µM
